Origin of values: ChEMBL document CHEMBL5252510

testDescription: Clearance in OFA rat at 1 mg/kg, iv measured upto 24 hrs by HPLC/UV analysis
Assay type: ADME, organism-based
protocolConditions: in vivo
measurementKind: clearance (mL/min/kg)
# number only, unit mL/min/kg dropped from output

### Prompt Fill in: clearance of "O=C(Nc1cccc(C(F)(F)F)c1)c1cccc2cc(Oc3cc(CO)ncn3)ccc12" is ___
### Response 3

* * *

assayedTarget: Vascular endothelial growth factor receptor 2 (Homo sapiens)
Sequence (P35968 whole entry): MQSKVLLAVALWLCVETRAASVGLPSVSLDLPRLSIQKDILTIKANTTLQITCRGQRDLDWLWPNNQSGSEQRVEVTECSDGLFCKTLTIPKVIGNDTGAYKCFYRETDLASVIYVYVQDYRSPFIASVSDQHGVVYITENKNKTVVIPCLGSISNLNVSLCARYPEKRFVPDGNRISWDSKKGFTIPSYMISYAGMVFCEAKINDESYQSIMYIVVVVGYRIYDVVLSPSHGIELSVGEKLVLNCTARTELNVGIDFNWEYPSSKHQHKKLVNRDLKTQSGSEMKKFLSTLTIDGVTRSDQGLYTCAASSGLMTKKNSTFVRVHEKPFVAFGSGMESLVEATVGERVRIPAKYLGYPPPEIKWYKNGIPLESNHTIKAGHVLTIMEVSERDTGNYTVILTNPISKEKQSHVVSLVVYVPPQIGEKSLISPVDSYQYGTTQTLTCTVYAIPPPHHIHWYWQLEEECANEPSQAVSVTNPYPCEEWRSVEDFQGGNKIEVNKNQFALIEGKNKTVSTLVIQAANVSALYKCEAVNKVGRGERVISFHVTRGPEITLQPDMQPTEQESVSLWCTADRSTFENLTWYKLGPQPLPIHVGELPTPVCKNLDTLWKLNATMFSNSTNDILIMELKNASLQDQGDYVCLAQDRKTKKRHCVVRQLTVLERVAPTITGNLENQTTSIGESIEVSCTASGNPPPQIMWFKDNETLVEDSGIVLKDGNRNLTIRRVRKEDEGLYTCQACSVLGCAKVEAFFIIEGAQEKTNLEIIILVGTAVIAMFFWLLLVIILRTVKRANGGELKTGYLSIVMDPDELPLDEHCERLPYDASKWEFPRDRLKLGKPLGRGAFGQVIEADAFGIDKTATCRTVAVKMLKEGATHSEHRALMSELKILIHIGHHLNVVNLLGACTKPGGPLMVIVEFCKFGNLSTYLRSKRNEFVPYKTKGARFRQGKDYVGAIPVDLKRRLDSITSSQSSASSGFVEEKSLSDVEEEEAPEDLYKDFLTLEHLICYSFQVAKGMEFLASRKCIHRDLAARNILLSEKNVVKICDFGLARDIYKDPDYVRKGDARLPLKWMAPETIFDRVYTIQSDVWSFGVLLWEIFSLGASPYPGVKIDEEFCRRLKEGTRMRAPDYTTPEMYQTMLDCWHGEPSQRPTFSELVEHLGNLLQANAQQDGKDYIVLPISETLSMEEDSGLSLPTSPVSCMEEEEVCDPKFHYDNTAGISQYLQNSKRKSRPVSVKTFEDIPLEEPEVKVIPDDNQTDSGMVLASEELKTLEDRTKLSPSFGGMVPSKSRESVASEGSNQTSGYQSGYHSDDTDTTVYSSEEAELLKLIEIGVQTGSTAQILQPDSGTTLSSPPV
testDescription: Inhibition of VEGF-induced human VEGFR2 autophosphorylation expressed in HUVEC cells measured after 2 hrs by chemiluminescence assay
Type: cell-based
Assign IC50 to each entry below.
# number only, unit nM dropped from output

### Prompt Fill in: IC50 of "Nc1nccc(Oc2ccc3c(C(=O)Nc4cccc(C(F)(F)F)c4)cccc3c2)n1" is ___
### Response 2.9

### Prompt Fill in: IC50 of O=C(Nc1cccc(C(F)(F)F)c1)c1cccc2cc(Oc3cc(CO)ncn3)ccc12 [BFH-772] is ___
### Response 3
